B1: POU domain, class 2, transcription factor 2, residues 200 to 269; numbered along this chain, P09086 (parent)
chain: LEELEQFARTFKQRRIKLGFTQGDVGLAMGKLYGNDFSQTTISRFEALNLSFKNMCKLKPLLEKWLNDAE

# Variants of: B1
# TEST SUMMARY: abundance fitness (aPCA) (normalised: wild type 0, dead -1); higher = more abundant; growth selection in yeast, the domain comes from the species named
# RECORDED CONDITIONS: Homo sapiens
For each of the variants below, state its abundance fitness.
Answers are plain numbers.

Illustrative cases are given below, each with its answer.
D68E    -0.047
Q13E    0.06
K57M    0.01
R15A    -0.977
L27W    -0.105

Hi there! I need abundance fitness for each item below, if you can.
1. L48I
2. K57T
3. N49I
4. K17S
5. N49W

Data returned:
1. -0.029
2. 0.024
3. -0.037
4. -0.009
5. -0.309

Hi there! I need abundance fitness for each item below, if you can.
1. D24S
2. Q22G
3. M29H
4. G23W

Data returned:
1: -0.091; 2: -0.187; 3: -0.681; 4: -0.076

Hi there! I need abundance fitness for each item below, if you can.
1. F37H
2. E2Q
3. I42S
4. G30I
5. T10S
6. P60W
7. E3K
8. D24P

Data returned:
[-0.093, -0.171, -0.685, -0.083, -0.016, -0.334, -0.189, -0.918]
